Tested on: HepG2.117 cells
Test: Cytotoxicity in HepG2.117 cells, ATPlite Luminescence Assay
Format: cell-based, human
Conditions: incubated for 3 days, mean value, read-out: TOX-HepG2.117 CC50 (μM, mean value)
assay.metric: CC50 (µM)
Reply with just the number (in µM).

Problem: Report CC50 for C[C@@H]1Cc2nn3c(c2CN1C(=O)c1ccc(Cl)c(Cl)c1)C(=O)N(C)OC(CF)C3 (stereo in doubt) [Compound 47]
Solution: 3.63

---

Assay: Cytotoxicity in HepG2.117 cells, ATPlite Luminescence Assay
Assay type: cell-based, human
Details: human, incubated for 3 days, mean value, read-out: TOX-HepG2.117 CC50 (μM, mean value)
assay.metric: CC50 at 3 days

Problem: Give CC50 at 3 days for Cc1cnc(C(C)N2CCn3nc4c(c3C2=O)CN(C(=O)c2ccc(Cl)c(Cl)c2)[C@H](C)C4)o1 (stereo partly shown)
Solution: > 50 µM

Problem: Complete the entry with CC50 at 3 days for C=C1CN(C)C(=O)c2c3c(nn2C1)C[C@@H](C)N(C(=O)c1ccc(Cl)c(Cl)c1)C3
Solution: 1.44 µM

Problem: Annotate the molecule Cc1ocnc1CN1CCn2nc3c(c2C1=O)CN(C(=O)c1ccc(Cl)c(Cl)c1)[C@H](C)C3 with its measured CC50 at 3 days.
Solution: > 25 µM

Problem: Respond only with CC50 at 3 days recorded for COc1ccc(CN2CCn3nc4c(c3C2=O)CN(C(=O)c2ccc(F)c(C#N)c2)CC4)cc1
Solution: > 50 µM

Problem: Report CC50 at 3 days for Cc1cc(Cl)ccc1C(=O)N1CCc2nn3c(c2C1)C(=O)N(Cc1ccccn1)CC3
Solution: > 50 µM

Problem: Report CC50 at 3 days for C[C@@H]1Cc2nn3c(c2CN1C(=O)c1ccc(Cl)c(Cl)c1)C(=O)N([C@@H](C)c1ncn(S(=O)(=O)N(C)C)n1)CC3
Solution: > 50 µM

Problem: Read off the recorded CC50 at 3 days for Cc1cc(C#N)ccc1CN1CCn2nc3c(c2C1=O)CN(C(=O)c1ccc(Cl)c(Cl)c1)[C@H](C)C3
Solution: 25.6 µM
